Listed here: items and their measured LIPASE.
Species: Rattus norvegicus
procedureDetails: DrugMatrix - Regimen: Daily Repeat
Format: toxicity, organism-based, Sprague-Dawley
Parameters: regimen Daily Repeat, gender Male, age 6-8 weeks
cond: in vivo, po, 0 mg/kg, 120 h, tissue Plasma, route oral GAVAGE, dose level Control, time 5 day, […]
measurementName: LIPASE

[[record]]
molecule = "O=C(O)COC(=O)Cc1ccccc1Nc1c(Cl)cccc1Cl [ACECLOFENAC]"
measurementname = "LIPASE"
measuredresult = "10.5 u/L"

[[record]]
molecule = "c1ccc2c(c1)Nc1ccccc1S2 [PHENOTHIAZINE]"
measurementname = "LIPASE"
measuredresult = "10.5 u/L"

[[record]]
molecule = "CC(C)(c1ccc(O)cc1)c1ccc(O)cc1 [BISPHENOL A]"
measurementname = "LIPASE"
measuredresult = "85.83 u/L"

[[record]]
molecule = "CC#C[C@]1(O)CC[C@H]2[C@@H]3CCC4=CC(=O)CCC4=C3[C@@H](c3ccc(N(C)C)cc3)C[C@@]21C [MIFEPRISTONE]"
measurementname = "LIPASE"
measuredresult = "9.5 u/L"

[[record]]
molecule = "CS(=O)(=O)c1ccc(C2=C(c3ccccc3)C(=O)OC2)cc1 [ROFECOXIB]"
measurementname = "LIPASE"
measuredresult = "10.5 u/L"


* * *

LACTATE DEHYDROGENASE: recorded values
Organism: Rattus norvegicus
procedureDetails: DrugMatrix - Regimen: Daily Repeat
Assay type: toxicity, organism-based, Sprague-Dawley
Parameters: regimen Daily Repeat, gender Male, age 6-8 weeks
cond: in vivo, po, 0 mg/kg, 72 h, tissue Plasma, route oral GAVAGE, dose level Control, time 3 day, vehicle 100 % WATER
measurementName: LACTATE DEHYDROGENASE

[[record]]
compound = "CC(Cl)(Cl)Cl"
measurementname = "LACTATE DEHYDROGENASE"
measuredresult = "188.33 u/L"

[[record]]
compound = "C[N+](C)(C)CCOC(N)=O.[Cl-]"
measurementname = "LACTATE DEHYDROGENASE"
measuredresult = "171 u/L"

[[record]]
compound = "NN [HYDRAZINE]"
measurementname = "LACTATE DEHYDROGENASE"
measuredresult = "536.5 u/L"

[[record]]
compound = "Cc1cn([C@H]2C=C[C@@H](CO)O2)c(=O)[nH]c1=O"
measurementname = "LACTATE DEHYDROGENASE"
measuredresult = "171 u/L"

[[record]]
compound = "C1CCN2C[C@@H]3C[C@@H](CN4CCCC[C@@H]34)[C@H]2C1"
measurementname = "LACTATE DEHYDROGENASE"
measuredresult = "188.33 u/L"

[[record]]
compound = "CCC1(c2ccccc2)C(=O)NC(=O)NC1=O"
measurementname = "LACTATE DEHYDROGENASE"
measuredresult = "147.83 u/L"

[[record]]
compound = "CCN(CC)C(=S)SSC(=S)N(CC)CC"
measurementname = "LACTATE DEHYDROGENASE"
measuredresult = "301.83 u/L"

[[record]]
compound = "Cc1cc(C(C)(C)C)c(O)c(C)c1CC1=NCCN1"
measurementname = "LACTATE DEHYDROGENASE"
measuredresult = "230 u/L"


* * *

Organism: Rattus norvegicus
procedureDetails: DrugMatrix - Regimen: Daily Repeat
Format: toxicity, organism-based, Sprague-Dawley
Parameters: regimen Daily Repeat, gender Male, age 6-8 weeks
cond: in vivo, po, 0 mg/kg, 120 h, tissue Blood, route oral GAVAGE, dose level Control, time 5 day, vehicle .5 % CMC
measurementName: ERYTHROCYTE COUNT (x10E6/uL)

[[record]]
compound = "NC(=O)CN1CCCC1=O"
measuredresult = 5.32

[[record]]
compound = "CCN1C[C@]2(COC)[C@H](O)C[C@H](OC)[C@@]34[C@@H]5C[C@@]6(O)[C@H](OC(=O)c7ccccc7)[C@@H]5[C@@](OC(C)=O)([C@@H]([C@H](OC)[C@H]23)[C@@H]14)[C@@H](O)[C@@H]6OC"
measuredresult = 7.12

[[record]]
compound = "CCN(CC)CCNC(=O)c1cc(Cl)c(N)cc1OC [METOCLOPRAMIDE]"
measuredresult = 6.96

[[record]]
compound = "COc1cc(/C=C/C(=O)O)ccc1O [FERULATE]"
measuredresult = 5.66

[[record]]
compound = "CCN1CCCC1CNC(=O)c1cc(S(N)(=O)=O)ccc1OC (stereo unspecified) [SULPIRIDE]"
measuredresult = 5.71

[[record]]
compound = "CC(C)(C#N)c1cc(Cn2cncn2)cc(C(C)(C)C#N)c1"
measuredresult = 5.65

[[record]]
compound = "NCC(CC(=O)O)c1ccc(Cl)cc1 (stereo unspecified)"
measuredresult = 5.52

[[record]]
compound = "CC(C)NCC(O)COc1ccc(CC(N)=O)cc1 (stereo unspecified)"
measuredresult = 6.05

[[record]]
compound = "Nc1ccc(C(=O)O)c(O)c1"
measuredresult = 6.12

[[record]]
compound = "CN(C)CCOC(c1ccccc1)c1ccccc1.Cn1c(=O)c2[nH]c(Cl)nc2n(C)c1=O [DIMENHYDRINATE]"
measuredresult = 5.66

[[record]]
compound = "NC(=O)NC(=O)Cc1ccccc1 [PHENACEMIDE]"
measuredresult = 5.57

[[record]]
compound = "COc1cc(NC(C)CCCN)c2ncccc2c1 (stereo unspecified)"
measuredresult = 6.72

[[record]]
compound = "CN(C)CCC=C1c2ccccc2COc2ccccc21 [DOXEPIN]"
measuredresult = 6.05

[[record]]
compound = "O=C1c2ccccc2C(=O)C1c1ccccc1"
measuredresult = 7.12

[[record]]
compound = "CC(C)Cc1ccc([C@H](C)C(=O)O)cc1"
measuredresult = 6.96

[[record]]
compound = "COc1ccc(Cl)cc1C(=O)NCCc1ccc(S(=O)(=O)NC(=O)NC2CCCCC2)cc1 [GLYBURIDE]"
measuredresult = 6.12

[[record]]
compound = "Cl.NC[C@H]1CC[C@H](C(=O)Oc2ccc(CCC(=O)O)cc2)CC1 [CETRAXATE HYDROCHLORIDE]"
measuredresult = 5.66

[[record]]
compound = "O=C(O)CCc1nc(-c2ccccc2)c(-c2ccccc2)o1"
measuredresult = 5.71

[[record]]
compound = "CC(=O)Nc1ccc2c(c1)Cc1ccccc1-2"
measuredresult = 5.52

[[record]]
compound = "CCOc1cc(N)c(Cl)cc1C(=O)NCC1CN(Cc2ccc(F)cc2)CCO1 (stereo unspecified) [MOSAPRIDE]"
measuredresult = 5.52

[[record]]
compound = "CCN1CCN(c2cc3c(cc2F)c(=O)c(C(=O)O)cn3C2CC2)CC1"
measuredresult = 6.96


* * *

Organism: Rattus norvegicus
procedureDetails: DrugMatrix - Regimen: Daily Repeat
Type: toxicity, organism-based, Sprague-Dawley
Design: regimen Daily Repeat, gender Male, age 6-8 weeks
cond: in vivo, po, 0 mg/kg, 120 h, tissue Plasma, route oral GAVAGE, dose level Control, time 5 day, vehicle .5 % CMC
The entries below come with measured ALKALINE PHOSPHATASE values attached.
measurementName: ALKALINE PHOSPHATASE (u/L)

[[record]]
compound = "O=C(O)CCc1nc(-c2ccccc2)c(-c2ccccc2)o1"
measuredresult = 373.17

[[record]]
compound = "CCN1CCN(c2cc3c(cc2F)c(=O)c(C(=O)O)cn3C2CC2)CC1"
measuredresult = 340.33

[[record]]
compound = "Cc1cc2c(s1)Nc1ccccc1N=C2N1CCN(C)CC1"
measuredresult = 356.67

[[record]]
compound = "CC(C)(C#N)c1cc(Cn2cncn2)cc(C(C)(C)C#N)c1"
measuredresult = 405.67

[[record]]
compound = "Cl.NC[C@H]1CC[C@H](C(=O)Oc2ccc(CCC(=O)O)cc2)CC1 [CETRAXATE HYDROCHLORIDE]"
measuredresult = 365.67

[[record]]
compound = "COc1ccc(Cl)cc1C(=O)NCCc1ccc(S(=O)(=O)NC(=O)NC2CCCCC2)cc1 [GLYBURIDE]"
measuredresult = 369.5

[[record]]
compound = "NC(=O)NC(=O)Cc1ccccc1 [PHENACEMIDE]"
measuredresult = 322.17

[[record]]
compound = "CCN(CC)CCNC(=O)c1cc(Cl)c(N)cc1OC [METOCLOPRAMIDE]"
measuredresult = 340.33

[[record]]
compound = "CC(C)NCC(O)COc1ccc(CC(N)=O)cc1 (centres undefined)"
measuredresult = 377.5


* * *

Reported ALBUMIN by item:
Organism: Rattus norvegicus
procedureDetails: DrugMatrix - Regimen: Daily Repeat
Assay type: toxicity, organism-based, Sprague-Dawley
Parameters: regimen Daily Repeat, gender Male, age 6-8 weeks
cond: in vivo, po, 0 mg/kg, 72 h, tissue Plasma, route oral GAVAGE, dose level Control, time 3 day, vehicle .5 % CMC
measurementName: ALBUMIN (G/DL)

[[record]]
molecule = "CCN1CCCC1CNC(=O)c1cc(S(N)(=O)=O)ccc1OC (stereo not drawn) [SULPIRIDE]"
measurementname = "ALBUMIN"
measuredresult = 4.33

[[record]]
molecule = "NC(=O)CN1CCCC1=O"
measurementname = "ALBUMIN"
measuredresult = 4.15

[[record]]
molecule = "CC(=O)Nc1ccc2c(c1)Cc1ccccc1-2"
measurementname = "ALBUMIN"
measuredresult = 4.15

[[record]]
molecule = "NCC(CC(=O)O)c1ccc(Cl)cc1 (stereo not drawn)"
measurementname = "ALBUMIN"
measuredresult = 4.15

[[record]]
molecule = "Nc1ccc(C(=O)O)c(O)c1"
measurementname = "ALBUMIN"
measuredresult = 3.9

[[record]]
molecule = "CN(C)CCC=C1c2ccccc2COc2ccccc21 [DOXEPIN]"
measurementname = "ALBUMIN"
measuredresult = 4.07

[[record]]
molecule = "CC(C)(C#N)c1cc(Cn2cncn2)cc(C(C)(C)C#N)c1"
measurementname = "ALBUMIN"
measuredresult = 4.17

[[record]]
molecule = "COc1ccc(Cl)cc1C(=O)NCCc1ccc(S(=O)(=O)NC(=O)NC2CCCCC2)cc1 [GLYBURIDE]"
measurementname = "ALBUMIN"
measuredresult = 3.9

